- testSystem: recombinant HA subtype H7 (A/Netherlands/219/03 (H7N7)) (influenza A virus)
- assayInfo: ELISA, rHA coated
Documented EC50 across a set of binders
measurementType: EC50 (µg/mL)

[[record]]
binder = "Antibody 6 (antibody, V domains shown) VH: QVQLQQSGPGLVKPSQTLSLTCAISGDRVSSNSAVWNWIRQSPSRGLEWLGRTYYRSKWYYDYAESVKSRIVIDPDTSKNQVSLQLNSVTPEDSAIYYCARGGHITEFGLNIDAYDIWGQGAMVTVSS VL: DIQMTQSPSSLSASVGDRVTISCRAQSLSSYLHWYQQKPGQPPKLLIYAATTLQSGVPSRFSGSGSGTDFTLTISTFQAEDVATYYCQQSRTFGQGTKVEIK"
measurementtype = "EC50"
measuredvalue = 0.116

[[record]]
binder = "Antibody 10 (antibody, V domains shown) VH: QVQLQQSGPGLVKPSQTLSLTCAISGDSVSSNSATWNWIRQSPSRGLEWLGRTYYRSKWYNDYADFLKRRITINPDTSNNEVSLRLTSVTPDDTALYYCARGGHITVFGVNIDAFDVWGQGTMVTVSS VL: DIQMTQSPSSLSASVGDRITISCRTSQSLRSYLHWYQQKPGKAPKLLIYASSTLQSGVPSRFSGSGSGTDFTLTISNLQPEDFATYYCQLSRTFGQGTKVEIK"
measurementtype = "EC50"
measuredvalue = 0.034

[[record]]
binder = "Antibody 5 (antibody, V domains shown) VH: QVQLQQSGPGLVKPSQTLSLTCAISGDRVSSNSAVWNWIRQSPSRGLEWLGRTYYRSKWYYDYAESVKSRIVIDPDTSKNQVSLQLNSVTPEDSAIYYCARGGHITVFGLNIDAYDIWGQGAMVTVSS VL: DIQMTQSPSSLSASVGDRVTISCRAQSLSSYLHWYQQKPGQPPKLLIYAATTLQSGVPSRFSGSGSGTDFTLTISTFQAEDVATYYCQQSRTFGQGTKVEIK"
measurementtype = "EC50"
measuredvalue = 0.024

[[record]]
binder = "Antibody 8 (antibody, V domains shown) VH: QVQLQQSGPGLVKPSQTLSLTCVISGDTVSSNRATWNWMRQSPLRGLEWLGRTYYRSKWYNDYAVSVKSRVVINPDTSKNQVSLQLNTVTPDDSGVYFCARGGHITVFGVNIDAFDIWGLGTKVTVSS VL: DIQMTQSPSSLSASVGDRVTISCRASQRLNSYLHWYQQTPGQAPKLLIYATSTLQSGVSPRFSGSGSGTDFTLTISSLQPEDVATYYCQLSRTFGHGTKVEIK"
measurementtype = "EC50"
measuredvalue = 0.015

